Below, each entry is listed with its recorded melting point.
Structures can show the parent of a compound that is named as a salt.
measure: melting point

                                    molecule        measure    resultvalue
 0  COC(=O)c1cc(Nc2ncnc3cc(OC)c(OCCCN4CCOCC4)cc23)c(C)[se]1 (as salt: HCl) [Compound 10]  melting point  198 to 200 °C
 1  COCCOc1cc2ncnc(Nc3cc(C(C)(C)C)[se]c3C(N)=O)c2cc1OCCOC (as salt: HCl) [Compound 6]  melting point  224 to 226 °C
 2  CSc1cc2ncnc(Nc3cc(C(C)(C)C)[se]c3C(N)=O)c2s1 [Compound 14]  melting point  260 to 262 °C
 3  COc1cc2ncnc(N(C)c3cc(C(C)(C)C)[se]c3C(N)=O)c2cc1OCCCN1CCOCC1 (as salt: HCl) [Compound 22]  melting point  254 to 256 °C
 4  COc1cc2ncnc(N(CCCl)c3cc(C(C)(C)C)[se]c3C(N)=O)c2cc1OCCCN1CCOCC1 (as salt: HCl) [Compound 23]  melting point  190 to 192 °C
 5  CC(C)(C)c1cc(Nc2ncnc3oc(-c4ccccc4)cc23)c(C(N)=O)[se]1 [Compound 15]  melting point  280 to 282 °C
 6  CC(C)(C)c1cc(Nc2ncnc3ccc(NC(=O)CCl)cc23)c(C(N)=O)[se]1 (as salt: HCl) [Compound 9]  melting point  276 to 278 °C
 7  COc1cc2ncnc(Nc3cc(C(C)(C)C)[se]c3C(N)=O)c2cc1OC [Compound 1]  melting point  234 to 238 °C
 8  CC(C)(C)c1cc(Nc2ncnc3cc(C(C)(C)C)[se]c23)c(C(N)=O)[se]1 (as salt: HCl) [Compound 18]  melting point  212 to 214 °C
 9  COc1cc2ncnc(Nc3cc(C(C)(C)C)[se]c3C(N)=O)c2cc1OCCCN1CCOCC1 (as salt: HCl) [Compound 3]  melting point  262 to 264 °C
10  COC(=O)c1cc(Nc2ncnc3[nH]c(C)c(C)c23)c(C)[se]1 [Compound 17]  melting point  238 to 240 °C
11  CC(C)(C)c1cc(Nc2ncnc3ccc(N)cc23)c(C(N)=O)[se]1 (as salt: HCl) [Compound 8]  melting point  170 to 172 °C
12  COC(=O)c1cc(Nc2nc(C)nc3cc(OC)c(OC)cc23)c(C)[se]1 (as salt: HCl) [Compound 25]  melting point  276 to 280 °C
13  CC(C)(C)c1cc(Nc2ncnc3ncccc23)c(C(N)=O)[se]1 (as salt: HCl) [Compound 12]  melting point  242 to 244 °C
14  COc1cc2ncnc(Oc3cc(C(C)(C)C)[se]c3C(N)=O)c2cc1OC [Compound 29]  melting point  220 to 224 °C
15  COc1cc2ncnc(Nc3cc(-c4ccccc4)[se]c3C(N)=O)c2cc1OCCCN1CCOCC1 (as salt: HCl) [Compound 7]  melting point  266 to 270 °C
16  COc1cc2ncnc(Nc3cc(C(N)=O)[se]c3C)c2cc1OCCCN1CCOCC1 (as salt: HCl) [Compound 11]  melting point  252 to 254 °C
17  COc1cc2c(Nc3cc(C(C)(C)C)[se]c3C(N)=O)ncnc2cc1OCCCN1CCOCC1 (as salt: HCl) [Compound 5]  melting point  262 to 264 °C
18  COc1cc2nc(C)nc(Nc3cc(C(C)(C)C)[se]c3C(N)=O)c2cc1OC (as salt: HCl) [Compound 24]  melting point  282 to 284 °C
